Value source: patent US8796244B2

Test system: parental wild-type Ba/F3 cells
Assay: Ba/F3 (WT) cell proliferation assay (Alamar Blue)
Assay type: cell-based
Conditions: Mus musculus, BaF3, 72 h, read-out: BaF3 WT prolif (μM)
Counter-ions that a name gives are not always drawn.
measure name: IC50 (µM)
The answer is to be given in µM; state only the numeric part.

I have this molecule here, Nc1ccc(-c2ccn3c(-c4cccc(NC(=O)NCC(F)(F)F)c4)cnc3c2)nc1 [Example 124, hydrochloride] , and I need its recorded IC50.
0.27

Item under review: Cn1ccc(C#Cc2ccn3c(-c4cccc(NC(=O)NCC(F)(F)F)c4)cnc3c2)n1 [Example 86, formate] . Reported IC50?
1.9
